# Test system: SNG-M (Endometrial Carcinoma);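 further: after 72 h of two-drug dosing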
# protocol_description: Bliss excess, mean over the matrix (fraction); higher = more synergy
I would appreciate it if you labelled entries Yes when Bliss excess is -0.02 or higher, otherwise No.

[
  {
    "compound": "Cc1cc2ncnn2cc1Nc1ncc2c(n1)n(C1CCOCC1)c(=O)n2C [AZD7648] + COc1cc([C@@H]2c3cc4c(cc3[C@@H](O[C@@H]3O[C@@H]5CO[C@@H](C)O[C@H]5[C@H](O)[C@H]3O)[C@H]3COC(=O)[C@H]23)OCO4)cc(OC)c1O [Etoposide] (first compound max 10 µM, 7x7, partner max 10 µM)",
    "qualitative_label": "Yes"
  },
  {
    "compound": "Cc1cc2ncnn2cc1Nc1ncc2c(n1)n(C1CCOCC1)c(=O)n2C [AZD7648] + C[C@@H]1COCCN1C2=NC(=NC(=C2)C3(CC3)[S@](=N)(=O)C)C4=C5C=CNC5=NC=C4 [AZD6738] (first compound max 10 µM, 7x7, partner max 10 µM)",
    "qualitative_label": "No"
  },
  {
    "compound": "NC1(C(=O)N[C@@H](CCO)c2ccc(Cl)cc2)CCN(c2ncnc3[nH]ccc23)CC1 [Capivasertib] + CC(=O)c1c(C)c2cnc(Nc3ccc(N4CCNCC4)cn3)nc2n(C2CCCC2)c1=O [Palbociclib] (first compound max 10 µM, 7x7, partner max 10 µM)",
    "qualitative_label": "No"
  },
  {
    "compound": "C[C@@H](Nc1cc(F)cc(F)c1)c1cc(C(=O)N(C)C)cc2c(=O)cc(N3CCOCC3)oc12 [AZD8186] + C1CN(CCC1(C(=O)N[C@@H](CCO)C2=CC=C(C=C2)Cl)N)C3=NC=NC4=C3C=CN4 [AZD5363] (first compound max 10 µM, 7x7, partner max 10 µM)",
    "qualitative_label": "Yes"
  },
  {
    "compound": "CCc1c2c(nc3ccc(O)cc13)-c1cc3c(c(=O)n1C2)COC(=O)[C@]3(O)CC [SN-38] + O=C(c1cc(Cc2n[nH]c(=O)c3ccccc23)ccc1F)N1CCN(C(=O)C2CC2)CC1 [Olaparib] (first compound max 0.3 µM, 7x7, partner max 10 µM)",
    "qualitative_label": "Yes"
  },
  {
    "compound": "N#Cc1cnc(Nc2cc(NC[C@H]3CNCCO3)c(C(F)(F)F)cn2)cn1 [SRA737] + O=c1[nH]cc(F)c(=O)[nH]1 [5-Fluorouracil] (first compound max 10 µM, 7x7, partner max 20 µM)",
    "qualitative_label": "Yes"
  },
  {
    "compound": "CC(=O)c1c(C)c2cnc(Nc3ccc(N4CCNCC4)cn3)nc2n(C2CCCC2)c1=O [Palbociclib] + Cc1c2c(nn1C)CSCc1cc(n(C)n1)CSc1cc(c3ccccc3c1)OCCCc1c(C(=O)O)n(C)c3c-2c(Cl)ccc13 [AZD5991] (first compound max 10 µM, 7x7, partner max 1 µM)",
    "qualitative_label": "No"
  },
  {
    "compound": "Cc1nc(Nc2ncc(C(=O)Nc3c(C)cccc3Cl)s2)cc(N2CCN(CCO)CC2)n1 [Dasatinib] + CC(=O)Nc1cccc(-n2c(=O)n(C3CC3)c(=O)c3c(Nc4ccc(I)cc4F)n(C)c(=O)c(C)c32)c1 [Trametinib] (first compound max 2 µM, 7x7, partner max 1 µM)",
    "qualitative_label": "Yes"
  },
  {
    "compound": "CC1(C)CCC(CN2CCN(c3ccc(C(=O)NS(=O)(=O)c4ccc(NCC5CCOCC5)c([N+](=O)[O-])c4)c(Oc4cnc5[nH]ccc5c4)c3)CC2)=C(c2ccc(Cl)cc2)C1 [Venetoclax] + Cn1cnc2c(F)c(Nc3ccc(Br)cc3Cl)c(C(=O)NOCCO)cc21 [Selumetinib] (first compound max 1 µM, 7x7, partner max 3 µM)",
    "qualitative_label": "No"
  },
  {
    "compound": "CN(C)CCCOc1ccc(-c2ccc3ncc4c(c3c2)n(C2CCOCC2)c(=O)n4C)cn1 [AZD0156] + C[C@@H]1COCCN1C2=NC(=NC(=C2)C3(CC3)[S@](=N)(=O)C)C4=C5C=CNC5=NC=C4 [AZD6738] (first compound max 1 µM, 7x7, partner max 10 µM)",
    "qualitative_label": "Yes"
  },
  {
    "compound": "C[C@@H]1COCCN1c1cc(C2([S@](C)(=N)=O)CC2)nc(-c2ccnc3[nH]ccc23)n1 [AZD6738] + Nc1ccn([C@@H]2O[C@H](CO)[C@@H](O)C2(F)F)c(=O)n1 [Gemcitabine] (first compound max 10 µM, 7x7, partner max 0.3 µM)",
    "qualitative_label": "No"
  },
  {
    "compound": "Cn1cnc2c(F)c(Nc3ccc(Br)cc3Cl)c(C(=O)NOCCO)cc21 [Selumetinib] + CCN(CCO)CCCOc1ccc2c(Nc3cc(CC(=O)Nc4cccc(F)c4)[nH]n3)ncnc2c1 [AZD2811] (first compound max 10 µM, 7x7, partner max 1 µM)",
    "qualitative_label": "No"
  },
  {
    "compound": "NC1(C(=O)N[C@@H](CCO)c2ccc(Cl)cc2)CCN(c2ncnc3[nH]ccc23)CC1 [Capivasertib] + CC(C)n1c(=O)n(C)c2cnc3cc(F)c(-c4ccc(OCCCN5CCCCC5)nc4)cc3c21 [AZD1390] (first compound max 10 µM, 7x7, partner max 0.3 µM)",
    "qualitative_label": "No"
  },
  {
    "compound": "Cn1cnc2c(F)c(Nc3ccc(Br)cc3Cl)c(C(=O)NOCCO)cc21 [Selumetinib] + C[C@@H]1COCCN1C2=NC(=NC(=C2)C3(CC3)[S@](=N)(=O)C)C4=C5C=CNC5=NC=C4 [AZD6738] (first compound max 10 µM, 7x7, partner max 10 µM)",
    "qualitative_label": "No"
  }
]

Taken from the supplement of paper PMC11061612.
